Test system: human Factor 7 mRNA
Assay: Dose-dependent antisense inhibition of human Factor 7 in HepB3 cells, transfection with lipofectin
Type: cell-based
Details: Example 2; HepB3, lipofectin, 25.0 nM, ~16 h
In the oligonucleotide strings, read from the 5' end, every base follows the letter of its sugar. An asterisk marks phosphorothioate; unmarked linkages are phosphodiester. Other units and linkages are bracketed, terminal groups are in braces. A string of capitals states the bases alone. e = 2'-O-(2-methoxyethyl) (MOE); [5mC] = 5-methylcytosine; d = 2'-deoxy (DNA)
ATTRIBUTE_MEASURED: percent inhibition of Factor 7 mRNA, 25.0 nM (%)

SUBSTANCE	MEASURED_VALUE
407936 (antisense eG*eG*e[5mC]*eA*eT*dT*d[5mC]*dG*d[5mC]*d[5mC]*dA*d[5mC]*d[5mC]*dA*dT*eG*e[5mC]*eA*eT*eG) [compound 407936]	86
407939 (antisense eT*eG*e[5mC]*eA*eG*d[5mC]*d[5mC]*d[5mC]*dG*dG*d[5mC]*dA*d[5mC]*d[5mC]*d[5mC]*eA*eG*e[5mC]*eG*eA) [compound 407939]	91
407910 (antisense eA*eG*eT*e[5mC]*e[5mC]*dT*dT*dG*d[5mC]*dT*dG*d[5mC]*d[5mC]*dA*dT*e[5mC]*e[5mC]*eG*eA*eG) [compound 407910]	68
407606 (antisense e[5mC]*eT*eG*eG*eT*d[5mC]*d[5mC]*dT*dT*dG*d[5mC]*dA*dG*dG*dA*eG*e[5mC]*e[5mC]*e[5mC]*e[5mC]) [compound 407606]	55
407643 (antisense e[5mC]*eA*e[5mC]*eA*e[5mC]*dA*dT*dG*dG*dA*dG*dT*d[5mC]*dA*dG*e[5mC]*eA*eT*e[5mC]*eG) [compound 407643]	76
407641 (antisense e[5mC]*e[5mC]*eT*eG*eA*dG*dG*d[5mC]*d[5mC]*dA*dG*d[5mC]*dA*dG*dA*eT*e[5mC]*eA*e[5mC]*eG) [compound 407641]	84
407900 (antisense e[5mC]*e[5mC]*e[5mC]*e[5mC]*eA*d[5mC]*dA*dA*dT*dT*d[5mC]*dG*dG*d[5mC]*d[5mC]*eT*eT*eG*eG*eG) [compound 407900]	87
407935 (antisense eA*eT*eG*e[5mC]*eA*dT*dG*dG*dT*dG*dA*dT*dG*d[5mC]*dT*eT*e[5mC]*eT*eG*eA) [compound 407935]	89
407594 (antisense e[5mC]*e[5mC]*eT*eG*e[5mC]*dA*dG*d[5mC]*d[5mC]*dA*dG*dG*d[5mC]*dA*dG*e[5mC]*e[5mC]*e[5mC]*eT*eG) [compound 407594]	77

###

System: human Factor 7 mRNA
Assay: Antisense inhibition of human Factor 7 mRNA in HepB3 cells, lipofectin, 50 nM, real-time RT-PCR
Format: cell-based
Conditions: HepB3 cells; gapmers targeted to nucleobases 11830 to 11869 of SEQ ID NO: 1 (Table 9)
In the oligonucleotide strings, read from the 5' end, every base follows the letter of its sugar. An asterisk marks phosphorothioate; unmarked linkages are phosphodiester. Other units and linkages are bracketed, terminal groups are in braces. A string of capitals states the bases alone. e = 2'-O-(2-methoxyethyl) (MOE); [5mC] = 5-methylcytosine; d = 2'-deoxy (DNA)
ATTRIBUTE_MEASURED: % Inhibition of human Factor 7 mRNA levels (%)

SUBSTANCE	UOM	MEASURED_VALUE
422092 (antisense eA*eT*eG*eG*eT*d[5mC]*dA*dG*dG*dG*d[5mC]*dT*dG*dG*dT*eT*eT*eT*eG*eG) [compound 422092]	%	36
422161 (antisense eA*e[5mC]*eA*dA*dT*dG*dG*dT*d[5mC]*dA*dG*dG*dG*d[5mC]*dT*dG*dG*eT*eT*eT) [compound 422161]	%	53
422245 (antisense eT*eG*dA*dG*dG*dA*dG*dA*d[5mC]*dA*dA*dT*dG*dG*dT*e[5mC]*eA*eG*eG*eG) [compound 422245]	%	24

###

Entries and their percent inhibition of Factor 7 mRNA, relative to untreated control cells
Test system: human Factor 7 mRNA
Test: Dose-dependent antisense inhibition of human Factor 7 in HepB3 cells, transfection with electroporation
Format: cell-based
Conditions: 25 μM, 16 hours (Example 7, Table 15)
In the oligonucleotide strings, read from the 5' end, every base follows the letter of its sugar. An asterisk marks phosphorothioate; unmarked linkages are phosphodiester. Other units and linkages are bracketed, terminal groups are in braces. A string of capitals states the bases alone. e = 2'-O-(2-methoxyethyl) (MOE); [5mC] = 5-methylcytosine; d = 2'-deoxy (DNA)
ATTRIBUTE_MEASURED: percent inhibition of Factor 7 mRNA, relative to untreated control cells (%)

SUBSTANCE	SYSTEM_UNDER_TEST	MEASURED_VALUE
422252 (antisense e[5mC]*eG*d[5mC]*d[5mC]*dG*dG*d[5mC]*dT*d[5mC]*dT*dG*d[5mC]*dT*d[5mC]*dA*eT*e[5mC]*e[5mC]*e[5mC]*e[5mC]) [compound 422252]	human Factor 7 mRNA	38
407935 (antisense eA*eT*eG*e[5mC]*eA*dT*dG*dG*dT*dG*dA*dT*dG*d[5mC]*dT*eT*e[5mC]*eT*eG*eA) [compound 407935]	human Factor 7 mRNA	73
422152 (antisense eA*eT*eG*d[5mC]*dA*dT*dG*dG*dT*dG*dA*dT*dG*d[5mC]*dT*dT*d[5mC]*eT*eG*eA) [compound 422152]	human Factor 7 mRNA	44
422215 (antisense eG*eT*eT*d[5mC]*dT*dG*d[5mC]*dA*dG*dG*dA*dG*d[5mC]*dG*dG*d[5mC]*d[5mC]*eT*eA*eA) [compound 422215]	human Factor 7 mRNA	50

###

System: human Factor 7 mRNA
Assay: Antisense inhibition of human Factor 7 mRNA in HepB3 cells, lipofectin, 50 nM, real-time RT-PCR
Type: cell-based
Details: HepB3 cells; gapmers targeted to nucleobases 11830 to 11869 of SEQ ID NO: 1 (Table 9)
In the oligonucleotide strings, read from the 5' end, every base follows the letter of its sugar. An asterisk marks phosphorothioate; unmarked linkages are phosphodiester. Other units and linkages are bracketed, terminal groups are in braces. A string of capitals states the bases alone. e = 2'-O-(2-methoxyethyl) (MOE); [5mC] = 5-methylcytosine; d = 2'-deoxy (DNA)
ATTRIBUTE_MEASURED: % Inhibition of human Factor 7 mRNA levels (%)

SUBSTANCE	MEASURED_VALUE
422235 (antisense eA*eT*dG*dG*dT*d[5mC]*dA*dG*dG*dG*d[5mC]*dT*dG*dG*dT*eT*eT*eT*eG*eG) [compound 422235]	50
422091 (antisense eT*eG*eG*eT*e[5mC]*dA*dG*dG*dG*d[5mC]*dT*dG*dG*dT*dT*eT*eT*eG*eG*eA) [compound 422091]	42
422171 (antisense eG*eG*e[5mC]*dT*dG*dA*dG*dG*dA*dG*dA*d[5mC]*dA*dA*dT*dG*dG*eT*e[5mC]*eA) [compound 422171]	61

###

Test system: human Factor 7 mRNA
Test: Dose-dependent antisense inhibition of human Factor 7 in HepB3 cells, transfection with lipofectin
Format: cell-based
Conditions: 25 nM, lipofectin, HepB3 cells, 16 hours
In the oligonucleotide strings, read from the 5' end, every base follows the letter of its sugar. An asterisk marks phosphorothioate; unmarked linkages are phosphodiester. Other units and linkages are bracketed, terminal groups are in braces. A string of capitals states the bases alone. e = 2'-O-(2-methoxyethyl) (MOE); [5mC] = 5-methylcytosine; d = 2'-deoxy (DNA)
Listing of entries alongside the reported percent inhibition of Factor 7 mRNA, relative to untreated control cells.
ATTRIBUTE_MEASURED: percent inhibition of Factor 7 mRNA, relative to untreated control cells (%)

SUBSTANCE	MEASURED_VALUE
422215 (antisense eG*eT*eT*d[5mC]*dT*dG*d[5mC]*dA*dG*dG*dA*dG*d[5mC]*dG*dG*d[5mC]*d[5mC]*eT*eA*eA) [compound 422215]	65
422183 (antisense eG*e[5mC]*eG*d[5mC]*d[5mC]*dA*d[5mC]*d[5mC]*d[5mC]*dG*d[5mC]*d[5mC]*dG*dG*d[5mC]*dT*d[5mC]*eT*eG*e[5mC]) [compound 422183]	78
422142 (antisense eG*eA*eG*eT*eT*d[5mC]*dT*dG*d[5mC]*dA*dG*dG*dA*dG*d[5mC]*eG*eG*e[5mC]*e[5mC]*eT) [compound 422142]	66

###

Tested on: human Factor 7 mRNA
Assay: Antisense inhibition of human Factor 7 mRNA in HepB3 cells, lipofectin, 50 nM, real-time RT-PCR
Assay type: cell-based
Settings: HepB3 cells, lipofectin, 50 nM antisense oligonucleotide, approximately 24 hours, primer probe set RTS 2927, relative to untreated control
In the oligonucleotide strings, read from the 5' end, every base follows the letter of its sugar. An asterisk marks phosphorothioate; unmarked linkages are phosphodiester. Other units and linkages are bracketed, terminal groups are in braces. A string of capitals states the bases alone. e = 2'-O-(2-methoxyethyl) (MOE); [5mC] = 5-methylcytosine; d = 2'-deoxy (DNA)
ATTRIBUTE_MEASURED: % Inhibition of human Factor 7 mRNA levels

SUBSTANCE	MEASURED_VALUE
416428 (antisense e[5mC]*eT*eG*eG*eG*dT*dT*dA*d[5mC]*dG*dA*dA*dG*dA*d[5mC]*eT*eG*e[5mC]*eA*eG) [compound 416428]	11%
416503 (antisense eT*eA*eG*e[5mC]*e[5mC]*dA*d[5mC]*d[5mC]*d[5mC]*d[5mC]*dG*d[5mC]*dG*dG*dG*e[5mC]*eT*eG*eG*e[5mC]) [compound 416503]	0%
416536 (antisense e[5mC]*eG*eG*eG*eA*dA*dG*dG*d[5mC]*d[5mC]*dT*dG*d[5mC]*d[5mC]*d[5mC]*eT*eG*e[5mC]*eA*eG) [compound 416536]	23%
416553 (antisense eG*eG*eT*eT*e[5mC]*dT*d[5mC]*dT*dG*d[5mC]*dA*d[5mC]*dA*dG*dG*eG*eT*eA*eG*eA) [compound 416553]	56%
416506 (antisense e[5mC]*eT*eT*eT*eA*dA*dA*dA*dT*d[5mC]*dA*dG*dT*dT*dT*e[5mC]*eA*e[5mC]*eA*e[5mC]) [compound 416506]	18%
407900 (antisense e[5mC]*e[5mC]*e[5mC]*e[5mC]*eA*d[5mC]*dA*dA*dT*dT*d[5mC]*dG*dG*d[5mC]*d[5mC]*eT*eT*eG*eG*eG) [compound 407900]	78%
416530 (antisense eA*eG*eG*eG*eT*dA*dG*d[5mC]*d[5mC]*dT*dT*dT*dG*d[5mC]*d[5mC]*eT*eT*eG*eG*e[5mC]) [compound 416530]	35%
416518 (antisense eG*eG*eG*eT*eG*dA*d[5mC]*d[5mC]*dA*d[5mC]*dA*d[5mC]*dA*dT*dT*eT*e[5mC]*e[5mC]*eT*eG) [compound 416518]	55%
416429 (antisense eA*e[5mC]*eG*e[5mC]*e[5mC]*dG*dT*dG*dG*dG*d[5mC]*dT*dT*d[5mC]*d[5mC]*eT*e[5mC]*e[5mC]*eT*eG) [compound 416429]	47%
416436 (antisense eA*e[5mC]*eT*eG*eG*dT*d[5mC]*d[5mC]*d[5mC]*d[5mC]*dA*dT*d[5mC]*dA*d[5mC]*eT*eG*eT*eA*eA) [compound 416436]	27%
416471 (antisense eT*eG*eA*eG*e[5mC]*dT*dT*dT*dT*dG*d[5mC]*dA*dG*d[5mC]*d[5mC]*eA*e[5mC]*eT*e[5mC]*eG) [compound 416471]	62%
